# System: PANC-1
# ASSAY INFO: Cytotoxic activity against human PANC1 cells in nutrient-rich medium measured after 24 hrs by WST8 assay
# Format: cell-based
# EXPERIMENTAL CONTEXT: panc-1, 24 h
METRIC: Activity

O=C(NCCCc1ccccc1)c1cc2cc(O)ccc2oc1=O: Non-Toxic
O=C(NCc1ccccc1)c1cc2ccc(O)cc2oc1=O: Non-Toxic
O=C(NCCCc1ccccc1Cl)c1cc2ccc(O)cc2oc1=O: Non-Toxic
O=C(NCCCc1ccccc1)c1cc2cccc(O)c2oc1=O: Non-Toxic
O=C(NCCCc1ccccc1)c1cc2ccc(O)cc2oc1=O: Non-Toxic
O=C(NCCCc1ccccc1)c1cc2ccccc2oc1=O: Non-Toxic
O=C(NCCCc1ccc(Cl)cc1Cl)c1cc2ccc(O)cc2oc1=O: Non-Toxic
O=C(NCCCc1ccc(Cl)cc1)c1cc2ccc(O)cc2oc1=O: Non-Toxic

Activity in this record for `O=C(NCCCc1cccc(Cl)c1Cl)c1cc2ccc(O)cc2oc1=O` : Non-Toxic
